measurement_protocol: Metabolic stability in human hepatic cytosol assay
Assay type: in vitro ADME
assay_conditions: pooled human liver cytosol, pH 7.4; human liver cytosol; read-out: cytosol half life
measurement_type: half-life at 2 μM

Complete the entry with half-life at 2 μM for CC(C)C[C@H](NC(=O)c1ccc(-c2csc(N3CCN(C)CC3)n2)cc1)C(=O)N1C[C@@H](Cl)[C@H]2OCC(=O)[C@H]21 > 5 h

###

target_system: baculovirus-expressed human cathepsin S (Homo sapiens)
Construct: made in house
Sequence (P25774 115-331): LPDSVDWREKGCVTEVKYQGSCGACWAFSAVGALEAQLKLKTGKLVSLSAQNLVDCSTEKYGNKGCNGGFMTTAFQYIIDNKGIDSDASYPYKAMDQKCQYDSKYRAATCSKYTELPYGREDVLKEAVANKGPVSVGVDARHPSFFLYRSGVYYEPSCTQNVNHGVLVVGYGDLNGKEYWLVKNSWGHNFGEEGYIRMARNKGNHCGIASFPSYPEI
measurement_protocol: Cathepsin S Ki determination
Format: biochemical
assay_conditions: representative values from specific batches of compound/enzyme/assay occasion
measurement_type: Ki (µM)
Numeric only. Scale: µM

CN1CCN(c2nc(-c3ccc(C(=O)N[C@H](C(=O)N4C[C@@H](Cl)[C@H]5OCC(=O)[C@H]54)C4CCCCC4)cc3)cs2)CC1 [Example 7] : 1.7
CC(C)C[C@H](NC(=O)c1ccc(-c2nc(N3CCN(C)CC3)sc2F)cc1)C(=O)N1C[C@@H](Cl)[C@H]2OCC(=O)[C@H]21 [Example 12] : 11
CN1CCN(c2nc(-c3ccc(C(=O)N[C@@H](CC(C)(C)F)C(=O)N4C[C@@H](Cl)[C@H]5OCC(=O)[C@H]54)cc3)cs2)CC1 [Example 8] : 13
CC(C)C[C@H](NC(=O)c1ccc(-c2csc(N3CCN(C)CC3)n2)cc1)C(=O)N1C[C@@H](Cl)[C@H]2OCC(=O)[C@H]21 [Example 6] : 4
Cc1sc(N2CCN(C)CC2)nc1-c1ccc(C(=O)N[C@@H](CC(C)C)C(=O)N2C[C@@H](Cl)[C@H]3OCC(=O)[C@H]32)cc1 [Example 5] : 7.5

From here, focus on the item given below.
Complete the entry with Ki for CC(C)C[C@H](NC(=O)c1ccc(-c2csc(N3CCN(C)CC3)n2)c(F)c1)C(=O)N1C[C@@H](Cl)[C@H]2OCC(=O)[C@H]21 [Example 10] 4.7
